Experiment: Solubility in various media at 25° C. after 24 hours equilibration (UPLC)
Assay type: physicochemical
Details: acetate buffer pH 4.7; 25° C., 24 hours equilibration
METRIC: solubility (µg/mL)

[[record]]
compound = "Cc1nc(C)c(C(=O)Nc2ccc(F)c(-c3nc4ncc(-c5ncccc5C)cn4n3)c2)o1 [Amorphous Compound I Fumaric Acid (1:1)]"
readout_unit = "µg/mL"
qualifying_sign = "<"
experimental_value = 0.1

[[record]]
compound = "Cc1nc(C)c(C(=O)Nc2ccc(F)c(-c3nc4ncc(-c5ncccc5C)cn4n3)c2)o1 [Free Form]"
readout_unit = "µg/mL"
qualifying_sign = "="
experimental_value = 2

[[record]]
compound = "Cc1nc(C)c(C(=O)Nc2ccc(F)c(-c3nc4ncc(-c5ncccc5C)cn4n3)c2)o1 [Amorphous Compound I Fumaric Acid (2:1)]"
readout_unit = "µg/mL"
qualifying_sign = "<"
experimental_value = 0.1

[[record]]
compound = "Cc1nc(C)c(C(=O)Nc2ccc(F)c(-c3nc4ncc(-c5ncccc5C)cn4n3)c2)o1 [Form B]"
readout_unit = "µg/mL"
qualifying_sign = "="
experimental_value = 2


====

Assay: Solid-state physical stability: form change by XRPD after stress storage
Type: physicochemical
Conditions: Solid state, 1 week 50° C./75% r.h.
METRIC: Bulk (XRPD)

[[record]]
compound = "Cc1nc(C)c(C(=O)Nc2ccc(F)c(-c3nc4ncc(-c5ncccc5C)cn4n3)c2)o1 [Form C]"
experimental_value = "no change"

[[record]]
compound = "Cc1nc(C)c(C(=O)Nc2ccc(F)c(-c3nc4ncc(-c5ncccc5C)cn4n3)c2)o1 [Compound I Fumaric Acid Co-crystal (2:1)]"
experimental_value = "no change"

[[record]]
compound = "Cc1nc(C)c(C(=O)Nc2ccc(F)c(-c3nc4ncc(-c5ncccc5C)cn4n3)c2)o1 [Form B]"
experimental_value = "no change"


====

Assay: Solubility in various media at 25° C. after 24 hours equilibration (UPLC)
Type: physicochemical
Settings: FeSSIF pH 5.8; after 24 hours equilibration
METRIC: final pH of the sample (in parentheses)

[[record]]
compound = "Cc1nc(C)c(C(=O)Nc2ccc(F)c(-c3nc4ncc(-c5ncccc5C)cn4n3)c2)o1 [Amorphous Compound I Fumaric Acid (1:1)]"
metric = "final pH of the sample (in parentheses)"
experimental_value = "(5.6)"

[[record]]
compound = "Cc1nc(C)c(C(=O)Nc2ccc(F)c(-c3nc4ncc(-c5ncccc5C)cn4n3)c2)o1 [Form B]"
metric = "final pH of the sample (in parentheses)"
experimental_value = "(5.6)"

[[record]]
compound = "Cc1nc(C)c(C(=O)Nc2ccc(F)c(-c3nc4ncc(-c5ncccc5C)cn4n3)c2)o1 [Free Form]"
metric = "final pH of the sample (in parentheses)"
experimental_value = 5.73

[[record]]
compound = "Cc1nc(C)c(C(=O)Nc2ccc(F)c(-c3nc4ncc(-c5ncccc5C)cn4n3)c2)o1 [Amorphous Compound I Fumaric Acid (2:1)]"
metric = "final pH of the sample (in parentheses)"
experimental_value = "(5.7)"

[[record]]
compound = "Cc1nc(C)c(C(=O)Nc2ccc(F)c(-c3nc4ncc(-c5ncccc5C)cn4n3)c2)o1 [Form C]"
metric = "final pH of the sample (in parentheses)"
experimental_value = "(5.5)"

[[record]]
compound = "Cc1nc(C)c(C(=O)Nc2ccc(F)c(-c3nc4ncc(-c5ncccc5C)cn4n3)c2)o1 [Compound I Fumaric Acid Co-crystal (2:1)]"
metric = "final pH of the sample (in parentheses)"
experimental_value = "(5.5)"


====

Assay: Solubility in various media at 25° C. after 24 hours equilibration (UPLC)
Type: physicochemical
Details: SGF pH 2.0; after 24 hours equilibration
METRIC: final pH of the sample (in parentheses)

[[record]]
molecule = "Cc1nc(C)c(C(=O)Nc2ccc(F)c(-c3nc4ncc(-c5ncccc5C)cn4n3)c2)o1 [Free Form]"
experimental_value = 1.99

[[record]]
molecule = "Cc1nc(C)c(C(=O)Nc2ccc(F)c(-c3nc4ncc(-c5ncccc5C)cn4n3)c2)o1 [Compound I Fumaric Acid Co-crystal (2:1)]"
experimental_value = "(1.9)"

[[record]]
molecule = "Cc1nc(C)c(C(=O)Nc2ccc(F)c(-c3nc4ncc(-c5ncccc5C)cn4n3)c2)o1 [Form C]"
experimental_value = "(2.0)"

[[record]]
molecule = "Cc1nc(C)c(C(=O)Nc2ccc(F)c(-c3nc4ncc(-c5ncccc5C)cn4n3)c2)o1 [Amorphous Compound I Fumaric Acid (1:1)]"
experimental_value = "(2.2)"

[[record]]
molecule = "Cc1nc(C)c(C(=O)Nc2ccc(F)c(-c3nc4ncc(-c5ncccc5C)cn4n3)c2)o1 [Form B]"
experimental_value = "(1.9)"

[[record]]
molecule = "Cc1nc(C)c(C(=O)Nc2ccc(F)c(-c3nc4ncc(-c5ncccc5C)cn4n3)c2)o1 [Amorphous Compound I Fumaric Acid (2:1)]"
experimental_value = "(2.2)"


====

Assay: Solubility in various media at 25° C. after 24 hours equilibration (UPLC)
Format: physicochemical
Settings: borate buffer pH 10.0; 25° C., 24 hours equilibration
Some compounds, each annotated with its measured solubility.
METRIC: solubility

[[record]]
compound = "Cc1nc(C)c(C(=O)Nc2ccc(F)c(-c3nc4ncc(-c5ncccc5C)cn4n3)c2)o1 [Amorphous Compound I Fumaric Acid (1:1)]"
metric = "solubility"
experimental_value = "<0.1 µg/mL"

[[record]]
compound = "Cc1nc(C)c(C(=O)Nc2ccc(F)c(-c3nc4ncc(-c5ncccc5C)cn4n3)c2)o1 [Form B]"
metric = "solubility"
experimental_value = "2 µg/mL"

[[record]]
compound = "Cc1nc(C)c(C(=O)Nc2ccc(F)c(-c3nc4ncc(-c5ncccc5C)cn4n3)c2)o1 [Free Form]"
metric = "solubility"
experimental_value = "2 µg/mL"

[[record]]
compound = "Cc1nc(C)c(C(=O)Nc2ccc(F)c(-c3nc4ncc(-c5ncccc5C)cn4n3)c2)o1 [Amorphous Compound I Fumaric Acid (2:1)]"
metric = "solubility"
experimental_value = "<0.1 µg/mL"


====

Test: Solubility in various media at 25° C. after 24 hours equilibration (UPLC)
Format: physicochemical
Conditions: phosphate buffer pH 6.8; 25° C., 24 hours equilibration
Let's look at some compounds and their measured solubility.
METRIC: solubility

[[record]]
compound = "Cc1nc(C)c(C(=O)Nc2ccc(F)c(-c3nc4ncc(-c5ncccc5C)cn4n3)c2)o1 [Free Form]"
experimental_value = "1 µg/mL"

[[record]]
compound = "Cc1nc(C)c(C(=O)Nc2ccc(F)c(-c3nc4ncc(-c5ncccc5C)cn4n3)c2)o1 [Amorphous Compound I Fumaric Acid (2:1)]"
experimental_value = "<0.1 µg/mL"

[[record]]
compound = "Cc1nc(C)c(C(=O)Nc2ccc(F)c(-c3nc4ncc(-c5ncccc5C)cn4n3)c2)o1 [Form B]"
experimental_value = "2 µg/mL"

[[record]]
compound = "Cc1nc(C)c(C(=O)Nc2ccc(F)c(-c3nc4ncc(-c5ncccc5C)cn4n3)c2)o1 [Amorphous Compound I Fumaric Acid (1:1)]"
experimental_value = "<0.1 µg/mL"


====

Experiment: Solid-state chemical stability: degradation products by UPLC/HPLC after stress storage
Assay type: physicochemical
Details: Solid state, 1 week 50° C./75% r.h.
METRIC: DP % (Degradation Product), Bulk (UPLC) (%)

[[record]]
compound = "Cc1nc(C)c(C(=O)Nc2ccc(F)c(-c3nc4ncc(-c5ncccc5C)cn4n3)c2)o1 [Form C]"
metric = "DP % (Degradation Product), Bulk (UPLC)"
readout_unit = "%"
experimental_value = 1.7

[[record]]
compound = "Cc1nc(C)c(C(=O)Nc2ccc(F)c(-c3nc4ncc(-c5ncccc5C)cn4n3)c2)o1 [Form B]"
metric = "DP % (Degradation Product), Bulk (UPLC)"
readout_unit = "%"
experimental_value = 1.7

[[record]]
compound = "Cc1nc(C)c(C(=O)Nc2ccc(F)c(-c3nc4ncc(-c5ncccc5C)cn4n3)c2)o1 [Compound I Fumaric Acid Co-crystal (2:1)]"
metric = "DP % (Degradation Product), Bulk (UPLC)"
readout_unit = "%"
experimental_value = 1.2

[[record]]
compound = "Cc1nc(C)c(C(=O)Nc2ccc(F)c(-c3nc4ncc(-c5ncccc5C)cn4n3)c2)o1 [Free Form]"
metric = "DP % (Degradation Product), Bulk (UPLC)"
readout_unit = "%"
experimental_value = 0.6


====

Test: Solid-state chemical stability: degradation products by UPLC/HPLC after stress storage
Type: physicochemical
Settings: Xenon light (approx. 1200 kLuxh), amber vial
# if measured DP % (Degradation Product), Amber vial (HPLC) < 1%: met  # else: not met

[[record]]
molecule = "Cc1nc(C)c(C(=O)Nc2ccc(F)c(-c3nc4ncc(-c5ncccc5C)cn4n3)c2)o1 [Free Form]"
assigned_label = "met"

[[record]]
molecule = "Cc1nc(C)c(C(=O)Nc2ccc(F)c(-c3nc4ncc(-c5ncccc5C)cn4n3)c2)o1 [Compound I Fumaric Acid Co-crystal (2:1)]"
assigned_label = "not met"

[[record]]
molecule = "Cc1nc(C)c(C(=O)Nc2ccc(F)c(-c3nc4ncc(-c5ncccc5C)cn4n3)c2)o1 [Form C]"
assigned_label = "not met"

[[record]]
molecule = "Cc1nc(C)c(C(=O)Nc2ccc(F)c(-c3nc4ncc(-c5ncccc5C)cn4n3)c2)o1 [Amorphous Compound I Fumaric Acid (2:1)]"
assigned_label = "not met"

[[record]]
molecule = "Cc1nc(C)c(C(=O)Nc2ccc(F)c(-c3nc4ncc(-c5ncccc5C)cn4n3)c2)o1 [Amorphous Compound I Fumaric Acid (1:1)]"
assigned_label = "not met"

[[record]]
molecule = "Cc1nc(C)c(C(=O)Nc2ccc(F)c(-c3nc4ncc(-c5ncccc5C)cn4n3)c2)o1 [Form B]"
assigned_label = "not met"

